Values were extracted from patent US20190064129A1.

# protocol: Oral fluid plasma equivalent calculation
# Type: in vivo, human
# testContext: human, plasma (equivalent calculated from oral fluid), po, 1 mg; Donor 0565; salivary pH 6.4; 1.333 hr after last dose
assayReadout: concentration at 1.333 hr

For this compound ( `COc1ccc2c3c1O[C@H]1C(=O)CC[C@@]4(O)[C@@H](C2)N(C)CC[C@]314` ), measured concentration at 1.333 hr is 42 ng/mL

----------
# protocol: LC-MS/MS quantitation of drug in donor serum/plasma
# Assay type: in vivo, human
# testContext: human, plasma, 7.5 mg; Donor 0476; weight 84.898 kg; 6.050 hr after last dose; read-out: Measured Plasma Concentration
assayReadout: concentration at 6.05 hr (ng/mL)
Dear colleague, please return just the value in ng/mL, with no unit written.

For this molecule ( COc1ccc2c3c1O[C@H]1C(=O)CC[C@@]4(O)[C@@H](C2)N(C)CC[C@]314 [Oxycodone] ), measured concentration at 6.05 hr is 3.2
